target: LRH-1 (Homo sapiens); construct: The transfected plasmids included full-length LRH-1 in a pCI vector; expressed in transfected cells; host or cells: HeLa; test: Luciferase reporter assay (SHP-luc) in HeLa cells transfected with full-length LRH-1; type: cell-based; conditions: HeLa cells, SHP-luc reporter, 24 hours, 0.03-30 μM
Sequence (O00482 whole entry): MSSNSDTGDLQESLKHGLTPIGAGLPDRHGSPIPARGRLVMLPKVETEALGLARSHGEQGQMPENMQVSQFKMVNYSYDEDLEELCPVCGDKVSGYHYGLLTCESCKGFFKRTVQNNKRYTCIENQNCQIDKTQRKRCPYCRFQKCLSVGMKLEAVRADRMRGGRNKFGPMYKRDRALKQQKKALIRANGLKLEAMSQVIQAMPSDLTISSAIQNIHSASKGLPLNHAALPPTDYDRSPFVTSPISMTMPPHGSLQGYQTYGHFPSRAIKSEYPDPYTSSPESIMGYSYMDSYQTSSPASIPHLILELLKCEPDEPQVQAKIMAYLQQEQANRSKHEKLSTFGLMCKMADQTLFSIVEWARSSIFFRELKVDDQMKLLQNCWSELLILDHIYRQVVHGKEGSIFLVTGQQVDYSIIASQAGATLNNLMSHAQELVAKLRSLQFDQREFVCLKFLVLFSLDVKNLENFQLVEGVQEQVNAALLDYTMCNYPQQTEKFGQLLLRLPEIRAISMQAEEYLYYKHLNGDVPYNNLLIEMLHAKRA
readout-type: EC50

compound="C=C(c1ccccc1)[C@@]12CC[C@@H](O)[C@@H]1CC(CCCCCCCCC(=O)O)=C2c1ccccc1 (relative stereo) [Compound 10f]" recorded_value="1.8 µM"
compound="C=C(c1ccccc1)[C@@]12CC[C@@H](O)[C@@H]1CC(CCCCCC(=O)O)=C2c1ccccc1 (relative stereo)" recorded_value="9 µM"
compound="C=C(c1ccccc1)[C@@]12CC[C@@H](OS(C)(=O)=O)C1CC(CCCCCC)=C2c1ccccc1 (stereo partly drawn) [Compound 30-exo]" recorded_value="1 µM"

// field: EC50; key: C=C(c1ccccc1)[C@@]12CC[C@@H](O)C1CC(CCCCCC)=C2c1cc(O)cc(F)c1 (mixture of isomers) [Compound 18f] ; value = > 30 µM

Form field EC50, entry C=C(c1ccccc1)C12CCC(O)C1CC(CCCCCCCCCCO)=C2c1ccccc1 (centres unmarked) [Compound 11e] : 2 µM
